assay: in vitro; conditions: African green monkey
QUANTITY_NAME: CC50

# input molecule: CCC(CC)COC(=O)[C@H](C)N[P@](=O)(OC[C@H]1O[C@@](C#N)(c2ccc3c(N)ncnn23)[C@H](O)[C@@H]1O)Oc1ccccc1 [Remdesivir, remdesivir] ; wanted: its CC50
# output > 100 µM

// provenance: paper PMC9797896
